test protocol: Kinetic solubility of the compound in pH 7.4 buffer measured after 24 hrs by LC-UV analysis
Assay type: physicochemical
condition label: read-out: Kinetic_solubility
Consider the following compounds; for each one, report its solubility kinetic at 24 h.
Answers are plain numbers, in µM.

1. CCOc1cccc2c1OCC(=O)N[C@H]1CC[C@H](CC1)CC(=O)N[C@@H](Cc1c[nH]cn1)C(=O)N[C@H](Cc1ccccc1)C(=O)NCCc1ccc(cc1)OC2 69

As a next step, examine the compound that follows.
Qu. State the recorded solubility kinetic at 24 h for this entry: CCOc1cccc2c1OCC(=O)N[C@H]1CC[C@H](CC1)CC(=O)N[C@@H](CCS(C)(=O)=O)C(=O)N[C@H](Cc1ccccc1)C(=O)NCCc1ccc(cc1)OC2
Ans. 5

* * *

Answer each item with its documented half-life.
test protocol: Metabolic stability in mouse liver S9 fraction assessed as half life
Type: ADME, subcellular
Numbers only, in min.

Consider the following illustrative entries.
1. CCOc1cccc2c1OCC(=O)N[C@H]1CC[C@H](CC1)CC(=O)N[C@@H](c1ccccc1)C(=O)N[C@H](Cc1ccccc1)C(=O)NCCc1ccc(cc1)OC2 17
2. CCOc1cccc2c1OCC(=O)N[C@H]1CC[C@H](CC1)CC(=O)N[C@@H](c1ccccc1)C(=O)N[C@H](Cc1ccccc1)C(=O)N[C@H](C(=O)NC)Cc1ccc(cc1)NC2 20

Below: the item to evaluate.
Qu. Would you kindly share the measured half-life for CCOc1cccc2c1OCC(=O)N[C@H]1CC[C@H](CC1)CC(=O)N[C@@H](c1ccccc1)C(=O)N[C@H](Cc1ccccc1)C(=O)N[C@H](C(=O)NC)Cc1ccc(cc1)OC2 ?
Ans. 19

* * *

test protocol: Metabolic stability in rat liver S9 fraction assessed as half life
Assay type: ADME, subcellular
outcome measure: half-life (min)
Give bare numbers, in min.

Known results for molecules:
1) CCOc1cccc2c1OCC(=O)N[C@H]1CC[C@H](CC1)CC(=O)N[C@@H](c1ccccc1)C(=O)N[C@H](Cc1ccccc1)C(=O)NCCc1ccc(cc1)OC2 23
2) CCOc1cccc2c1OCC(=O)N[C@H]1CC[C@H](CC1)CC(=O)N[C@@H](c1ccccc1)C(=O)N[C@H](Cc1ccccc1)C(=O)N[C@H](C(=O)NC)Cc1ccc(cc1)OC2 47

Shift focus to the following entry.
Qu. Entry under review: CCOc1cccc2c1OCC(=O)N[C@H]1CC[C@H](CC1)CC(=O)N[C@@H](c1ccccc1)C(=O)N[C@H](Cc1ccccc1)C(=O)N[C@H](C(=O)NC)Cc1ccc(cc1)NC2 . Reported half-life?
Ans. 39

* * *

measured on: Induced myeloid leukemia cell differentiation protein Mcl-1 (Homo sapiens)
Sequence (Q07820 whole entry): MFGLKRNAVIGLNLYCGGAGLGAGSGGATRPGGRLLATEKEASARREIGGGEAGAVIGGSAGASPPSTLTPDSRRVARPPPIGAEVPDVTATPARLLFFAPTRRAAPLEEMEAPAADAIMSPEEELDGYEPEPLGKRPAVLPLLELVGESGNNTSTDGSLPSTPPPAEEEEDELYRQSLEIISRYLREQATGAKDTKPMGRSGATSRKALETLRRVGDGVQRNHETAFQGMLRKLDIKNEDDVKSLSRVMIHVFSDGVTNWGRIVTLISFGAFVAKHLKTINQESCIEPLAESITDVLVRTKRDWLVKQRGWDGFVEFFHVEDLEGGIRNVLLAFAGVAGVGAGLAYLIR
test protocol: Inhibition of Mcl-1 (172-327) (unknown origin) using BIOTIN-AHXGQVGRQLAIIGDDINR-amide peptide by TR-FRET based BAK peptide displacement assay
For each entry below, report its log10 of IC50 value.
Values are log10 of IC50 in µM.

1) CCOc1cccc2c1OCC(=O)N[C@H]1CC[C@H](CC1)CC(=O)N[C@@H](CC(C)C)C(=O)N[C@H](CC1CCCCC1)C(=O)N[C@H](C(=O)NC)Cc1ccc(cc1)OC2 -1.01
2) CCOc1cc(C#Cc2cccc(F)c2)cc2c1OCC(=O)N[C@H]1CC[C@H](CC1)CC(=O)N[C@@H](c1ccccc1)C(=O)N[C@H](Cc1ccccc1)C(=O)NCCc1ccc(cc1)OC2 0.86
3) CCOc1cccc2c1OCC(=O)N[C@H]1CC[C@H](CC1)CC(=O)N[C@@H](Cc1c[nH]cn1)C(=O)N[C@H](Cc1ccccc1)C(=O)NCCc1ccc(cc1)OC2 0.87
4) CCOc1cccc2c1OCC(=O)N[C@H]1CC[C@H](CC1)CC(=O)N[C@@H](CCS(C)(=O)=O)C(=O)N[C@H](Cc1ccccc1)C(=O)NCCc1ccc(cc1)OC2 -1.10
5) CCOc1cc(C#Cc2cc(F)cc(F)c2)cc2c1OCC(=O)N[C@H]1CC[C@H](CC1)CC(=O)N[C@@H](c1ccccc1)C(=O)N[C@H](Cc1ccccc1)C(=O)NCCc1ccc(cc1)OC2 0.75

Items follow; give log10 of IC50 for each.
1. CCOc1cccc2c1OCC(=O)N[C@H]1CC[C@H](CC1)CC(=O)N[C@@H](Cc1ccc(O)cc1)C(=O)N[C@H](Cc1ccccc1)C(=O)NCCc1ccc(cc1)OC2
2. CCOc1cccc2c1OCC(=O)N[C@H]1CC[C@H](CC1)CC(=O)N[C@H](c1ccccc1)C(=O)N[C@H](Cc1ccccc1)C(=O)NCCc1ccc(cc1)OC2

Ans.
1: 0.14; 2: 0.85

// data source = ChEMBL document CHEMBL5528043
